target: Serine/threonine-protein kinase B-raf (Homo sapiens, UniProt P15056, V600E); test: Inhibition of BRAF V600E mutant (unknown origin) preincubated for 20 mins followed by 33P-ATP addition and measured after 2 hrs by HotSpot kinase assay
Sequence (P15056 2-766 V600E limits assumed): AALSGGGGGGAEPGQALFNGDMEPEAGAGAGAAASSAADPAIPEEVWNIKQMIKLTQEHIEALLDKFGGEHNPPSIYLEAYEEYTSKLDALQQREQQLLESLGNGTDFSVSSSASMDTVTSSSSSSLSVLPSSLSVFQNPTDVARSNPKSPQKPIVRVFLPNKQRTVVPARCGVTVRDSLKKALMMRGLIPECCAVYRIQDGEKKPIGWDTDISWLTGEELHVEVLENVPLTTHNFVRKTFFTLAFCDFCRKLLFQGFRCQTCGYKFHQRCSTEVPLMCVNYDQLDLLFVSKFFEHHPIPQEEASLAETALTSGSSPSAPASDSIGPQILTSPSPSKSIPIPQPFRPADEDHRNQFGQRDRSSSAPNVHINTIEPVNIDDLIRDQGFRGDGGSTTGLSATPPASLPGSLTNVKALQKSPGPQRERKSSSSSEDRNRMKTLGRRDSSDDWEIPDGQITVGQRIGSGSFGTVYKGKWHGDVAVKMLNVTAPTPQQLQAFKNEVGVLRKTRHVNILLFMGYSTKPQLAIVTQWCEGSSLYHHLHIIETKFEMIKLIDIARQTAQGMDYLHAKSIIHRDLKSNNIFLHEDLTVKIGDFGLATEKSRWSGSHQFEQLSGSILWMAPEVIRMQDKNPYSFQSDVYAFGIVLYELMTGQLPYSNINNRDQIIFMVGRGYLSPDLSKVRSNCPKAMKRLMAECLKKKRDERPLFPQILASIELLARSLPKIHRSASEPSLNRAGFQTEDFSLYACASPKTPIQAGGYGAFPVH
pIC50: −log10 of the molar value.
PARAMETER MEASURED: pIC50

SAMPLE SMILES: O=S(=O)(NCCNc1cc(-c2[nH]c(-c3ccccc3)nc2-c2cccc(O)c2)ccn1)c1ccc(O)cc1
PARAMETER MEASURED: pIC50
ENDPOINT RESULT: 7.49

====

Reported Ratio IC50 values for the following compounds.
assay: Selectivity index, ratio of IC50 for human IOSE-80PC cells to IC50 for human LOX IMVI cells

SAMPLE SMILES: O=S(=O)(NCCCNc1nccc(-c2[nH]c(-c3ccccc3)nc2-c2ccc(Cl)c(O)c2)n1)c1ccc(F)cc1
Ratio IC50: > 4.35
//
SAMPLE SMILES: COc1cc(-c2nc(-c3ccccc3)[nH]c2-c2ccnc(NCCCNS(=O)(=O)c3cccc(F)c3)n2)ccc1F
Ratio IC50: > 11.1
//
SAMPLE SMILES: COc1cc(-c2nc(-c3ccccc3)[nH]c2-c2ccnc(NCCCNS(=O)(=O)c3ccc(C(F)(F)F)cc3)n2)ccc1Cl
Ratio IC50: > 5.62
//
SAMPLE SMILES: O=S(=O)(NCCCNc1nccc(-c2[nH]c(-c3ccccc3)nc2-c2ccc(F)c(O)c2)n1)c1ccc(C(F)(F)F)cc1
Ratio IC50: > 4.08
//
SAMPLE SMILES: O=S(=O)(NCCCNc1nccc(-c2[nH]c(-c3ccccc3)nc2-c2ccc(Cl)c(O)c2)n1)c1ccccc1
Ratio IC50: > 3.8
